# procedure details: AUC in CD1 mouse at 50 mg/kg, ip
# Assay type: ADME, organism-based
# Design: dose 50 mg/kg, route intraperitoneal
# condition description: plasma
recorded endpoint: AUC (ng·h/mL)
Express it in ng·h/mL; write the number only.

Just so you know, measured AUC for `CCS(=O)(=O)c1ccc2oc(-c3ccc4ccccc4c3)nc2c1` came out at 7000

----------
# Species on record: Mus musculus
# procedure details: Activation of UTRN promoter in mouse H2K cells assessed as upregulation of UTRN production at 3 uM after 48 hrs by luciferase reporter linked assay
# Assay type: functional
Reported Activity values for a set of compounds
Express it in %; write the number only.

> print(dat)
                            chemical.string  readout.unit  observed.result
1  CS(=O)(=O)c1ccc2oc(-c3ccc4ccccc4c3)nc2c1             %               95
2      CCC(=O)Nc1ccc2oc(-c3ccc(Cl)cc3)nc2c1             %               85
3         Nc1ccc2oc(-c3ccc(Cl)c(Cl)c3)nc2c1             %              107
4  C[C@H](N)C(=O)Nc1ccc2oc(-c3ccc(Cl)cc3)nc2c1             %               35

We next turn to a different compound, shown below.
Just so you know, measured Activity for `CCS(=O)(=O)c1ccc2oc(-c3ccc4ccccc4n3)nc2c1` came out at 59

----------
# Test system: Mus musculus
# procedure details: AUC in CD1 mouse at 10 mg/kg, ip
# Assay type: ADME, organism-based, Plasma
# Parameters: dose 10 mg/kg, route intraperitoneal
# condition description: in vivo
Reported AUC values for a set of compounds
Express it in ng·h/mL; write the number only.

> print(dat)
                           chemical.string  recorded.endpoint  observed.result
1  CC(C)C(=O)Nc1ccc2oc(-c3ccc(Cl)cc3)nc2c1                AUC             3820
2           Cc1cc2nc(-c3ccc(N)cc3O)oc2cc1C                AUC               10

We next turn to a different compound, shown below.
Just so you know, measured AUC for `CCS(=O)(=O)c1ccc2oc(-c3ccc(Cl)cc3)nc2c1` came out at 9650
